Target System: S. aureus FabI (Staphylococcus aureus, UniProt Q6GI75)
Construct: made in house
Sequence (Q6GI75 whole entry): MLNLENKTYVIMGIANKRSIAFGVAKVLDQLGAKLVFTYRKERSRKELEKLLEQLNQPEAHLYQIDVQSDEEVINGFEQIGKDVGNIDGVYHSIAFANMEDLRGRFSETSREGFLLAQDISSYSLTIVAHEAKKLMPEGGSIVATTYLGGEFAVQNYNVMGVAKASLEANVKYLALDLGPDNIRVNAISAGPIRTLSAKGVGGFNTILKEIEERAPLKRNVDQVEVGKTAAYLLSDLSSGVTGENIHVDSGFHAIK
Measurement Notes: S. aureus FabI enzyme assay (NADPH use at 340 nm, t-o-NAC thioester substrate)
Type: biochemical
Settings: Ki, with respect to trans-2-octenoyl N-acetylcysteamine
Outcome Measure: Ki (µM)
Kindly provide the numeric value in µM only, without the unit symbol.

QUERY: Respond only with Ki recorded for C=CC(C)(C)C12C=C(O)C(=O)N3/C(=C/c4cnc[nH]4)C(=O)NC31N(OC)c1ccccc12 (stereo not shown) [Compound 1, meleagrin]
RESULT: 39.8
